# protocol: in vitro
# assay_conditions: human
Here the recorded CC50 is given for each entry.
Write it as a number; the unit µM goes unstated.

COc1cc(Nc2ncc(F)c(Nc3ccc4c(n3)NC(=O)C(C)(C)O4)n2)cc(OC)c1OC : 5.74

As a next step, examine the compound that follows.
Please give measured CC50 of the following entry: COc1cc2c(Nc3ccc(Br)cc3F)ncnc2cc1OCC1CCN(C)CC1
3.76
